# maps each entry to its pEC50
- Measured target: T1, human MSLN protein endogenously expressed on OVCAR3 tumor cells (human, UniProt Q13421 296-598)
- T1 construct: whole, on cells; Endogenous target on OVCAR3 cells; kept apart from the recombinant full-length construct; also called mesothelin
- T1 sequence (Q13421 other isoform, or with tags, fused parts or gaps): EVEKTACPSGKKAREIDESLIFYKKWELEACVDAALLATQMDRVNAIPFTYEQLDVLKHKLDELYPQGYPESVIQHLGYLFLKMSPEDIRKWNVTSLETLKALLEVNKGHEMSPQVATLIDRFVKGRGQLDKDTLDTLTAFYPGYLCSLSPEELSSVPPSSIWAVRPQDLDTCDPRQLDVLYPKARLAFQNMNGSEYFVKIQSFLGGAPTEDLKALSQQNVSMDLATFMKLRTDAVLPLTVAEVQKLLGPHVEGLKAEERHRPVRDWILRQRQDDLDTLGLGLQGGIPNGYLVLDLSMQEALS
- Protocol details: FACS on OVCAR3 cells;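 note: flow cytometry binding of test antibodies to cells, 2 h incubation on ice, readout as cell mean fluorescence intensity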
pEC50 here: minus log base 10 of the concentration, concentration in moles per litre.

// solved cases for pEC50 follow
>>> reported_value("S009-F7.2.3 (antibody, human IgG1, kappa, V domains shown, human-murine chimeric antibody, human IgG1/kappa constant regions) VH: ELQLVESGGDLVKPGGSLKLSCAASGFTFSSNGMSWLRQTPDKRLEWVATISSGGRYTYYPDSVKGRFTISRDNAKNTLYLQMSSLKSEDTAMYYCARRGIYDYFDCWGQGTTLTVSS VL: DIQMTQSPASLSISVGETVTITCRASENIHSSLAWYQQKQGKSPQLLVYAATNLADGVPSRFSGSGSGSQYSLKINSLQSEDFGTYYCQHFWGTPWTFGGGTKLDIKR")
8.76
>>> reported_value("S009-F7.11.11 (antibody, human IgG1, kappa, V domains shown, human-murine chimeric antibody, human IgG1/kappa constant regions) VH: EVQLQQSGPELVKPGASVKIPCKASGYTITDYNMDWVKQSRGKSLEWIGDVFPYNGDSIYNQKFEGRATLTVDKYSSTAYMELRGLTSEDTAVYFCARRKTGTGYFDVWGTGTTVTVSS VL: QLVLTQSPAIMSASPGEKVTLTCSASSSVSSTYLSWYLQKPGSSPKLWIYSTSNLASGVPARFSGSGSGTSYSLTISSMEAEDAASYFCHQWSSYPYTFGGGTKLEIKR")
9.07

Let's switch to this binder now.
Q: Please report the recorded pEC50 for S009-F7.61.21 (antibody, human IgG1, kappa, V domains shown, human-murine chimeric antibody, human IgG1/kappa constant regions) VH: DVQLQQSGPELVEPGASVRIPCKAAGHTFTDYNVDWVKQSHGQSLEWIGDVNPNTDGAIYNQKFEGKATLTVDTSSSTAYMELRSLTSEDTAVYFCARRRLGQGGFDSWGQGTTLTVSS VL: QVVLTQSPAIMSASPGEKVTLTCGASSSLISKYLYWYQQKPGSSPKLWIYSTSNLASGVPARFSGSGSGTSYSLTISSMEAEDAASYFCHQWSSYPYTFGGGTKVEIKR .
Ans: 8.97
